target: Rap guanine nucleotide exchange factor 3 (Homo sapiens) (UniProt O95398); test: Counterscreen qHTS for antagonist of cAMP-regulated guanine nucleotide exchange factor 3 (EPAC1) (AID 1645888); conditions: Rap1B-BODIPY-GDP nucleotide exchange, fluorescence; series mostly up to 154 µM;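 also: fluorescence loss as bound BODIPY-GDP is released from Rap1B; % of control where 0% means no effect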
Sequence (O95398 whole entry, looked up): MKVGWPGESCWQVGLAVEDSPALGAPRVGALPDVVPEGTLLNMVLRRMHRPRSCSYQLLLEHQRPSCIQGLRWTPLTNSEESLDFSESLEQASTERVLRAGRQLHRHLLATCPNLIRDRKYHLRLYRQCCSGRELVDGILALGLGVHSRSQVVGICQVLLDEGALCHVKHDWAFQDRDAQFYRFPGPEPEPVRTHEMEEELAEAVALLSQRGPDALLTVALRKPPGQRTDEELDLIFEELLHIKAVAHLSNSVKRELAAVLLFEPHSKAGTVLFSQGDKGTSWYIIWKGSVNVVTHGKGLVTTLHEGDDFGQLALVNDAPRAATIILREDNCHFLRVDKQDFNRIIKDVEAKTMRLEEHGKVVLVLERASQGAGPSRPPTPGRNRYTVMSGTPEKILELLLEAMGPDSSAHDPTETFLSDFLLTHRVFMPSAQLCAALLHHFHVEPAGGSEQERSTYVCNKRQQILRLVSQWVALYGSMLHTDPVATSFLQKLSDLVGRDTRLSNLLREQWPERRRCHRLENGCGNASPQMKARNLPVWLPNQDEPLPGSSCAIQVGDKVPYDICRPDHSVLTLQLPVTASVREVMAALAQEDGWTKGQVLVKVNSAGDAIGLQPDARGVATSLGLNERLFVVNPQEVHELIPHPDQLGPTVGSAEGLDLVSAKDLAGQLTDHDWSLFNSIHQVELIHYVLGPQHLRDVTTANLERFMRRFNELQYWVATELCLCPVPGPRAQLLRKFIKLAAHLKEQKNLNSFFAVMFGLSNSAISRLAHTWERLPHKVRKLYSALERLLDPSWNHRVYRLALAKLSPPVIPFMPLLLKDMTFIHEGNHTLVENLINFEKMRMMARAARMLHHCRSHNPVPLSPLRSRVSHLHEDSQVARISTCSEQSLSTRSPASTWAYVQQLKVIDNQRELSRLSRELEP
Records with an inconclusive call do not appear. The source made the active and inactive calls. Calls follow the shape of the dose curve; as a rule, active = well fitted inhibition curve with a large enough effect; inconclusive = small, poorly fitted or top-dose-only effect; inactive = no such curve, though single readings can be large or run the other way.
READOUT_TYPE: activity change, negative = inhibition

Some entries whose results are on file:
• O=S(=O)(NCC(c1cccnc1)N1CCN(c2ccccc2F)CC1)c1cccs1 (stereo not given) = -13.6% [at 30.8 µM] (inactive)
• CCOc1ccccc1C(=O)N1CCc2cc(OC)c(OC)cc2C1COc1ccc(OC)cc1 (stereo not given) = inactive
• CCOC(=O)N/N=C/c1ccc(OCCSc2ccc(Cl)cc2)c(OC)c1 = inactive
• COc1cccc(NC(=O)/C(C#N)=C/c2ccc(-c3ccc(C)cc3)o2)c1 = inactive
• O=c1[nH][nH]c(-c2ccccc2O)c1C(C[N+](=O)[O-])c1ccc(Cl)cc1Cl (stereo not given) = inactive
• COc1ccc(C)cc1-n1c(-c2ccc(Cl)cc2)cc2c1CC(C)(C)CC2=O = inactive
• O=C1/C(=C/c2cccc(F)c2)SC(=S)N1NS(=O)(=O)c1ccccc1 = inactive
• Cc1csc(NC(=O)CSc2sc3c(O)cc(=O)[nH]c3c2C#N)n1 = inactive
• CCC(COC)Oc1cc(NCc2ccccc2)c2ncn(C(C)C)c2c1 (stereo not given) = inactive

Switching to the query record.
Q: Which activity change, negative = inhibition is listed for CC(=O)c1sc2nc(CSc3nnnn3-c3ccccc3)[nH]c(=O)c2c1C ?
Result: -6.43% [at 30.8 µM] (inactive)

====

Target: Rap guanine nucleotide exchange factor 3 (Homo sapiens) (UniProt O95398)
Assay: Counterscreen qHTS for agonist of cAMP-regulated guanine nucleotide exchange factor 3 (EPAC1) (AID 1645889); also: % of control where 0% means no effect; nearly all actives have a fitted effect of over 40% in size
Conditions: EPAC1 Rap1B-BODIPY-GDP exchange, fluorescence; series mostly up to 154 µM
Description: Assay Provider (PI): Xiaodong Cheng Ph.D. The University of Texas Medical Branch, […], TX MLPCN Grant: NS066510 In multi-cellular eukaryotic organisms, the effects of cAMP are transduced by two ubiquitously-expressed intracellular cAMP receptors, the classic protein kinase A/cAMP-dependent protein kinase (PKA/cAPK) and the more recently discovered exchange protein directly activated by cAMP/cAMP-regulated guanine nucleotide exchange factor (EPAC/cAMP-GEF). […]
Records with an inconclusive call do not appear. Activity calls are given as the source filed them. Calls come from the whole dose curve; as a rule, active = well fitted activation curve with a large enough effect; inconclusive = small, poorly fitted or top-dose-only effect, or another doubt; inactive = no such curve, though single readings can be large or run the other way.
READOUT_TYPE: activation

Some entries whose results are on file:
* COc1cc(SC)ccc1C(=O)Nc1c(C)cccc1C | 6.15% [at 30.8 µM] (inactive)
* Fc1ccc(-c2ccc3nccn3c2)cc1Cl | 10.1% [at 30.8 µM] (inactive)
* CCc1ccc(NC(=O)COC(=O)CCC2CCCC2)cc1 | inactive
* CC(c1ccon1)N(C)Cc1cn(C)nc1-c1cccc(Cl)c1 (stereo not drawn) | inactive
* COc1ccc(-c2nc(C)ncc2-c2ccccc2)c(O)c1 | -4.43% [at 30.8 µM] (inactive)

Q: Requested read-out activation, target or system Rap guanine nucleotide exchange factor 3 (Homo sapiens) (UniProt O95398), entry CC(=O)c1sc2nc(CSc3nnnn3-c3ccccc3)[nH]c(=O)c2c1C
Result: 8.36% [at 30.8 µM] (inactive)
